# Plant response rating, Blackgrass listing for each entry below
- Tested on: blackgrass
- protocol text: Test B pre/postemergence blackgrass
- Assay type: in vivo, Alopecurus myosuroides
- condition label: Preemergence, Rate 250 g/ha; scale of 0 to 10 where 0 is no effect and 10 is complete control
// return a plain number; no unit text

Sample records with Plant response rating, Blackgrass:
compound | Plant response rating, Blackgrass
CCc1noc(C)c1-n1c(=O)on(C(=O)N(c2ccc(F)cc2)C(C)C)c1=O [Compound 101] | 0
Cc1nn(C)c(Cl)c1-n1c(=O)on(C(=O)N(c2ccc(F)cc2)C(C)C)c1=O [Compound 95] | 4
CC(C)N(C(=O)n1oc(=O)n(-c2ccccc2Cl)c1=O)c1ccc(F)cc1 [Compound 8] | 0

Shift focus to the following entry.
Record summary for Cc1cccc(C)c1-n1c(=O)on(C(=O)N(c2ccc(F)cc2F)C(C)C)c1=O [Compound 28] : reported Plant response rating, Blackgrass = 3

* * *

- Test system: rape
- protocol text: Test B pre/postemergence rape
- Type: in vivo, Brassica napus
- condition label: Rate 500 g/ha, Postemergence; scale 0 to 10, 0 no effect, 10 complete control
attribute measured: Rape plant response rating

Sample records with Rape plant response rating:
compound | Rape plant response rating
CCC(C)N(C(=O)n1oc(=O)n(-c2ccccc2C)c1=O)c1ccc(F)cc1 (centres unmarked) | 0
Cc1cc(C)c(-n2c(=O)on(C(=O)N(c3ccc(F)cc3)C(C)C)c2=O)c(Br)c1 | 0
CC(C)N(C(=O)n1oc(=O)n(C2CC2)c1=O)c1ccccc1 | 3
CC(C)N(C(=O)n1oc(=O)n(C2CCCC2)c1=O)c1ccc(Cl)cc1 | 8

Shift focus to the following entry.
Record summary for CCn1c(=O)on(C(=O)N(c2ccc(F)cc2F)C(C)C)c1=O : reported Rape plant response rating = 9

* * *

- Test system: surinam grass
- protocol text: Test B pre/postemergence surinam grass
- Type: in vivo, Brachiaria decumbens
- condition label: Preemergence, Rate 250 g/ha; scale of 0 to 10 where 0 is no effect and 10 is complete control
attribute measured: Plant response rating, B. signalgrass
// return a plain number; no unit text

Sample records with Plant response rating, B. signalgrass:
smiles str | system name | attribute measured | test value
CC(C)N(C(=O)n1oc(=O)n(-c2ccccc2Cl)c1=O)c1ccc(F)cc1 | surinam grass | Plant response rating, B. signalgrass | 4
Cc1ccccc1-n1c(=O)on(C(=O)N(c2ccc(F)cc2F)C(C)C)c1=O | surinam grass | Plant response rating, B. signalgrass | 7

Record summary for CC(C)N(C(=O)n1oc(=O)n(-c2cnn(C)c2Cl)c1=O)c1ccccc1 : reported Plant response rating, B. signalgrass = 0

Record summary for CCn1c(=O)on(C(=O)N(c2ccc(F)cc2)C(C)C)c1=O : reported Plant response rating, B. signalgrass = 10

Record summary for CCN(CC)C(=O)n1oc(=O)n(-c2ccc(OC(F)(F)F)cc2)c1=O : reported Plant response rating, B. signalgrass = 0

Record summary for CCN(C(=O)n1oc(=O)n(Cc2cccs2)c1=O)C1CCCCC1 : reported Plant response rating, B. signalgrass = 0

* * *

- Tested on: surinam grass
- protocol text: Test B pre/postemergence surinam grass
- Assay type: in vivo, Brachiaria decumbens
- condition label: Rate 500 g/ha, Postemergence; scale 0 to 10, 0 no effect, 10 complete control
Hi! Just check whether Plant response rating, B. signalgrass is below 3. Below gives Met, equal or above gives Not met.

Below, 4 molecules whose answers are already recorded.
molecule | group label
CCC(CC)n1c(=O)on(C(=O)N(c2ccc(F)cc2F)C(C)C)c1=O | Met
COCC(C)n1c(=O)on(C(=O)N(c2ccc(F)cc2F)C(C)C)c1=O (stereo not drawn) | Not met
CC(C)N(C(=O)n1oc(=O)n(C2CCCCCC2)c1=O)c1ccccc1 | Met
CC(C)N(C(=O)n1oc(=O)n(C2(C)CC2)c1=O)c1ccccc1 | Not met

API: query returns whether the molecule falls strictly under 3 in Plant response rating, B. signalgrass. Query: CC(C)N(C(=O)n1oc(=O)n(C2CCC2)c1=O)c1ccc(F)cc1
Not met
